The entries below are paired with their reported recombinant UMI read abundance (log10).
Assay: recombinant UMI read abundance after kanamycin selection (control-corrected) (log10(CPM+1)); higher = more efficient recombination; extreme values may be limits of the assay; sequences stand for … in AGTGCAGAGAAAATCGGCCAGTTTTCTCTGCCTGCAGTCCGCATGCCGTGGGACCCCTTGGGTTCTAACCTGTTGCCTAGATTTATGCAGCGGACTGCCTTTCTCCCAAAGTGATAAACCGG…AGGTTGGTTTCACT; site = the 11-nt donor
VALUE_TYPE: recombinant UMI read abundance (log10)

{"RECORD_SEQUENCE": "AGTGTGTCATGGACCGGTTTTCCCGGTAATCCGTATTTGAC (site AATGTGTCTGT)", "VALUE_TYPE": "recombinant UMI read abundance (log10)", "MEASURED_NUMBER": 0}
{"RECORD_SEQUENCE": "TTATCTGCATGGACCGGTTTTCCCGGTAATCCGTATTTGTG (site TTAGCTGCTCA)", "VALUE_TYPE": "recombinant UMI read abundance (log10)", "MEASURED_NUMBER": 0.00464}
{"RECORD_SEQUENCE": "GGCCAGCCATGGACCGGTTTTCCCGGTAATCCGTATTTGTT (site GGCCAGCCTAA)", "VALUE_TYPE": "recombinant UMI read abundance (log10)", "MEASURED_NUMBER": 0.00292}
{"RECORD_SEQUENCE": "GATTGGACATGGACCGGTTTTCCCGGTAATCCGTATTTGGC (site GATTGGACTGT)", "VALUE_TYPE": "recombinant UMI read abundance (log10)", "MEASURED_NUMBER": 1.63}
{"RECORD_SEQUENCE": "ACTAGAACATGGACCGGTTTTCCCGGTAATCCGTATTTGAG (site ACTCGAACTCT)", "VALUE_TYPE": "recombinant UMI read abundance (log10)", "MEASURED_NUMBER": 0.115}
{"RECORD_SEQUENCE": "GGCAGCCCATGGACCGGTTTTCCCGGTAATCCGTATTTGAC (site GGCAGCCCTGT)", "VALUE_TYPE": "recombinant UMI read abundance (log10)", "MEASURED_NUMBER": 0}
{"RECORD_SEQUENCE": "AGTAAGCCATGGACCGGTTTTCCCGGTAATCCGTATTTGCA (site AGTAAGCCTTG)", "VALUE_TYPE": "recombinant UMI read abundance (log10)", "MEASURED_NUMBER": 0.539}
{"RECORD_SEQUENCE": "AGGTGGCCATGGACCGGTTTTCCCGGTAATCCGTATTTGCC (site AGGTGGCCTGG)", "VALUE_TYPE": "recombinant UMI read abundance (log10)", "MEASURED_NUMBER": 0}
{"RECORD_SEQUENCE": "TAGCCAGCATGGACCGGTTTTCCCGGTAATCCGTATTTGAA (site TAGCGAGCTTT)", "VALUE_TYPE": "recombinant UMI read abundance (log10)", "MEASURED_NUMBER": 0.0055}

====

The entries below are paired with their reported recombinant UMI read abundance (log10).
Test: recombinant UMI read abundance after kanamycin selection (control-corrected) (log10(CPM+1)); higher = more efficient recombination; extreme values may be limits of the assay; sequences stand for … in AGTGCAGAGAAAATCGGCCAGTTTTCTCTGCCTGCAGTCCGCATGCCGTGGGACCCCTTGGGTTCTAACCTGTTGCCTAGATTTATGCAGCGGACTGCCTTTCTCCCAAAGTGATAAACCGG…AGGTTGGTTTCACT; site = the 11-nt donor
VALUE_TYPE: recombinant UMI read abundance (log10)

{"RECORD_SEQUENCE": "CAATTCACATGGACCGGTTTTCCCGGTAATCCGTATTTGGG (site CAAGTCACTCC)", "VALUE_TYPE": "recombinant UMI read abundance (log10)", "MEASURED_NUMBER": 0.0135}
{"RECORD_SEQUENCE": "CCTAACGCATGGACCGGTTTTCCCGGTAATCCGTATTTGAT (site CCTAATGCTAT)", "VALUE_TYPE": "recombinant UMI read abundance (log10)", "MEASURED_NUMBER": 0}
{"RECORD_SEQUENCE": "TAGTGGGCATGGACCGGTTTTCCCGGTAATCCGTATTTGTC (site TAGTGGGCTGA)", "VALUE_TYPE": "recombinant UMI read abundance (log10)", "MEASURED_NUMBER": 2.31}
{"RECORD_SEQUENCE": "TTTGAGGCATGGACCGGTTTTCCCGGTAATCCGTATTTGCT (site TTTGCGGCTAG)", "VALUE_TYPE": "recombinant UMI read abundance (log10)", "MEASURED_NUMBER": 0}
{"RECORD_SEQUENCE": "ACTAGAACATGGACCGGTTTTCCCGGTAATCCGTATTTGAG (site ACCAGAACTCT)", "VALUE_TYPE": "recombinant UMI read abundance (log10)", "MEASURED_NUMBER": 1.23}
{"RECORD_SEQUENCE": "CTTCCTACATGGACCGGTTTTCCCGGTAATCCGTATTTGAG (site CTTCCTACTCT)", "VALUE_TYPE": "recombinant UMI read abundance (log10)", "MEASURED_NUMBER": 0.0166}
{"RECORD_SEQUENCE": "GAGCCTGCATGGACCGGTTTTCCCGGTAATCCGTATTTGGT (site GAGCCTGCTAC)", "VALUE_TYPE": "recombinant UMI read abundance (log10)", "MEASURED_NUMBER": 0.482}
{"RECORD_SEQUENCE": "AGAAAGGCATGGACCGGTTTTCCCGGTAATCCGTATTTGCT (site AGAAAGGCTAT)", "VALUE_TYPE": "recombinant UMI read abundance (log10)", "MEASURED_NUMBER": 1.27}
{"RECORD_SEQUENCE": "CCCTAACCATGGACCGGTTTTCCCGGTAATCCGTATTTGCC (site CCCTAACCTGG)", "VALUE_TYPE": "recombinant UMI read abundance (log10)", "MEASURED_NUMBER": 0}
{"RECORD_SEQUENCE": "CGCGAACCATGGACCGGTTTTCCCGGTAATCCGTATTTGAT (site CGCGAACCTAT)", "VALUE_TYPE": "recombinant UMI read abundance (log10)", "MEASURED_NUMBER": 0}
{"RECORD_SEQUENCE": "GAATGCACATGGACCGGTTTTCCCGGTAATCCGTATTTGTA (site GCATGCACTTA)", "VALUE_TYPE": "recombinant UMI read abundance (log10)", "MEASURED_NUMBER": 0.691}
{"RECORD_SEQUENCE": "TGGAATGCATGGACCGGTTTTCCCGGTAATCCGTATTTGTT (site TGGAATGCTAA)", "VALUE_TYPE": "recombinant UMI read abundance (log10)", "MEASURED_NUMBER": 1.71}
{"RECORD_SEQUENCE": "CTCCCAACATGGACCGGTTTTCCCGGTAATCCGTATTTGAG (site CTCCCAACTCT)", "VALUE_TYPE": "recombinant UMI read abundance (log10)", "MEASURED_NUMBER": 0.687}
{"RECORD_SEQUENCE": "GACAGGGCATGGACCGGTTTTCCCGGTAATCCGTATTTGAT (site GACAGGGCTAT)", "VALUE_TYPE": "recombinant UMI read abundance (log10)", "MEASURED_NUMBER": 1.89}
{"RECORD_SEQUENCE": "CCTATAGCATGGACCGGTTTTCCCGGTAATCCGTATTTGAT (site CCTACAGCTAT)", "VALUE_TYPE": "recombinant UMI read abundance (log10)", "MEASURED_NUMBER": 0}
{"RECORD_SEQUENCE": "ATCACAGCATGGACCGGTTTTCCCGGTAATCCGTATTTGGG (site ATCACAGCTCC)", "VALUE_TYPE": "recombinant UMI read abundance (log10)", "MEASURED_NUMBER": 0.00407}
{"RECORD_SEQUENCE": "TAGAACACATGGACCGGTTTTCCCGGTAATCCGTATTTGTC (site TAGAACACTGA)", "VALUE_TYPE": "recombinant UMI read abundance (log10)", "MEASURED_NUMBER": 2.34}
{"RECORD_SEQUENCE": "TGTTCCCCATGGACCGGTTTTCCCGGTAATCCGTATTTGTA (site TGTTCCCCTTC)", "VALUE_TYPE": "recombinant UMI read abundance (log10)", "MEASURED_NUMBER": 0.00924}

====

Test: recombinant barcode read abundance after kanamycin selection (control-corrected) (log10(CPM+1)); higher = more efficient recombination; sequences stand for … in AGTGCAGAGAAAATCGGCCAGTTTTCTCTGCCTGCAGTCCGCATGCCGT…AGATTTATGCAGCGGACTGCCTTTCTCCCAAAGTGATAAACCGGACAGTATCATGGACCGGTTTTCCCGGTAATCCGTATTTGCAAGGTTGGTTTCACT; site = the 11-nt target
VALUE_TYPE: recombinant barcode read abundance (log10)

{"RECORD_SEQUENCE": "AGCACAACTTGGGTTCTAACCTGTTGCCT (site AGCACAACTAG)", "MEASURED_NUMBER": 0.734}
{"RECORD_SEQUENCE": "AATGGGGCTTGGGTTCTAACCTGTTGCCT (site AATGGGACTAG)", "MEASURED_NUMBER": 0.369}
{"RECORD_SEQUENCE": "GTTAGGCCTTGGGTTCTAACCTGTTGCCT (site GTTAGGCCTAG)", "MEASURED_NUMBER": 0.292}
{"RECORD_SEQUENCE": "AGCACAACTTGGGTTCTAACCTGTTGCCT (site AGTACAACTAG)", "MEASURED_NUMBER": 0.498}
{"RECORD_SEQUENCE": "AGGAGCCCTTGGGTTCTAACCTGTTGCCA (site AGGAGCCCTTG)", "MEASURED_NUMBER": 0.841}
{"RECORD_SEQUENCE": "AGTATGACTTGGGTTCTAACCTGTTGCCT (site GGTATGACTAG)", "MEASURED_NUMBER": 0.0345}
{"RECORD_SEQUENCE": "AATGGGGCTTGGGTTCTAACCTGTTGCCT (site AATGGGTCTAG)", "MEASURED_NUMBER": 0.274}
{"RECORD_SEQUENCE": "CCGCGGACTTGGGTTCTAACCTGTTGCTA (site TAAAACCCTAT)", "MEASURED_NUMBER": 0.0107}
{"RECORD_SEQUENCE": "TAGCGGACTTGGGTTCTAACCTGTTGCCT (site TAGCTGACTAG)", "MEASURED_NUMBER": 0.0737}
{"RECORD_SEQUENCE": "AGCTACCCTTGGGTTCTAACCTGTTGCTT (site ACCTACTCTAA)", "MEASURED_NUMBER": 0.0582}
